Listed here: items and their measured IC50.
# experimental_system: Prostaglandin D2 receptor (Homo sapiens)
# Sequence (Q13258 whole entry): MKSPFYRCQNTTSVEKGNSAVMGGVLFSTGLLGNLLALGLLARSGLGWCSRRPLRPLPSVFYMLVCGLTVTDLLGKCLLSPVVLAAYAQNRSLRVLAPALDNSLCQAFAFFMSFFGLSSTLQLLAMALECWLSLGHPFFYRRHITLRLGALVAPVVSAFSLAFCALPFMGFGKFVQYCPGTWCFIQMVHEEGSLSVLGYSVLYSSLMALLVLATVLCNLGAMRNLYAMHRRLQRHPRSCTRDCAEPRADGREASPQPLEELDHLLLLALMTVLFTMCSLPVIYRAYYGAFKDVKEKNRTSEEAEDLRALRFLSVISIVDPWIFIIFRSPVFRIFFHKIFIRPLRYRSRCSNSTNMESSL
# test_name: Displacement of [3H]PGD2 from human DP receptor expressed in 293 cells by scintillation counting in presence of 0.5% BSA
value_kind: IC50

* C[C@H]1C[C@@H](N(C(=O)CCC(=O)O)c2ccccc2)c2ccccc2N1C(=O)c1ccccc1 | > 10 µM
* CC(=O)N(c1ccccc1)[C@@H]1C[C@H](C)N(C(=O)c2ccccc2)c2ccccc21 | > 10 µM
